// provenance: the RepoRT retention time repository (doi:10.1016/j.chroma.2014.05.003)

test: RP, Agilent ZORBAX Eclipse Plus C18, 50 × 4.6 mm, 1.8 µm, 0.5 mL/min, estimated dead time 1.1 min; A: water + 0.1% formic acid; B: acetonitrile + 0.1% formic acid; gradient (min/%B) 0/10 3/10 25/100 28/100; conditions: stereoisomer not certain
MEASUREMENT_LABEL: LC retention time (min)
Expressed in min, but write only the number.

Example entries begin here.
> print(dat)
                                   molecule  measurement.label  readout.units  observed.result
1              COP(=O)(OC)OC(C)=CC(=O)N(C)C  LC retention time            min             6.41
2  CC(C)(C)C(O)C(Oc1ccc(-c2ccccc2)cc1)n1cncn1 (configuration not stated)  LC retention time            min             16.6
3  CNC(=O)ON=C(C)C(C)S(C)(=O)=O (configuration not stated)  LC retention time            min             4.36
4                CCNc1nc(NC(C)(C)C)nc(OC)n1  LC retention time            min             9.32
5                CCNc1nc(NC(C)(C)C)nc(SC)n1  LC retention time            min             18.3
6                      CNC(=O)ON=CC(C)(C)SC  LC retention time            min             10.2

Record `Cn1cnc2c1c(=O)[nH]c(=O)n2C` , field LC retention time: 1.96

----------
assay: RP, Agilent ZORBAX Eclipse Plus C18, 50 × 4.6 mm, 1.8 µm, 0.5 mL/min, estimated dead time 1.1 min; A: water + 0.1% formic acid; B: acetonitrile + 0.1% formic acid; gradient (min/%B) 0/10 3/10 25/100 28/100; settings: stereoisomer not certain
Here, each record is paired with measured log10 LC retention time data.
Quick note: numbers are log10 of LC retention time, with min as the unit.

COMPOUND	MEASUREMENT_LABEL	OBSERVED_RESULT
CCCCC(CC)COC(=O)c1ccccc1C(=O)OCC(CC)CCCC (centres undefined)	log10 LC retention time	1.44
COCC(=O)N(c1c(C)cccc1C)N1CCOC1=O	log10 LC retention time	1.04
CC1=NNC(=O)N(N=Cc2cccnc2)C1	log10 LC retention time	0.15
CC(C)(C)NCC(O)c1ccc(O)c(CO)c1 (centres undefined)	log10 LC retention time	0.21
CS(=O)(=O)c1ccc(C(=O)C2C(=O)CCCC2=O)c([N+](=O)[O-])c1	log10 LC retention time	1.08
CCOP(=S)(OCC)Oc1ccc(S(C)=O)cc1 (centres undefined)	log10 LC retention time	1.13
CC(C)c1ccc(NC(=O)N(C)C)cc1	log10 LC retention time	1.11
CNC(=O)ON=C(C)SC	log10 LC retention time	0.73

Record CCCCCc1cc(O)c2c(c1)OC(C)(C)C1CCC(C(=O)O)=CC21 (centres undefined) , field log10 LC retention time: 1.28

Record `CN(C)c1ccc(C(c2ccccc2)c2ccc(N(C)C)cc2)cc1` , field log10 LC retention time: 1.10

----------
experiment: RP, Agilent ZORBAX Eclipse Plus C18, 50 × 4.6 mm, 1.8 µm, 0.5 mL/min, estimated dead time 1.1 min; A: water + 0.1% formic acid; B: acetonitrile + 0.1% formic acid; gradient (min/%B) 0/10 3/10 25/100 28/100; details: stereoisomer not certain
MEASUREMENT_LABEL: LC retention time (min)
Expressed in min, but write only the number.

Example entries begin here.
COMPOUND	LC retention time (min)
CCOP(=S)(OCC)OP(=S)(OCC)OCC	19.3
CC(=O)CC(c1ccccc1)c1c(O)c2ccccc2oc1=O (configuration not stated)	14.9
CC12CCC3c4ccc(O)cc4CCC3C1CCC2=O (configuration not stated)	14.6
CNC(=O)CSP(=S)(OC)OC	9
COP(N)(=S)Oc1ccccc1C(=O)OC(C)C (configuration not stated)	14.9

Record `CON(C(=O)c1cc(C)oc1C)C1CCCCC1` , field LC retention time: 17.7

Record `c1coc(-c2nc3ccccc3[nH]2)c1` , field LC retention time: 5.19

Record CC(N)Cc1ccc2c(c1)OCO2 (configuration not stated) , field LC retention time: 4.74

Record `Cc1cccc(Nc2ccccc2C(=O)O)c1C` , field LC retention time: 17.7

Record CCC1OC(=O)C(C)C(OC2CC(C)(OC)C(O)C(C)O2)C(C)C(OC2OC(C)CC(N(C)C)C2O)C(C)(O)CC(C)C(=O)C(C)C(O)C1(C)O (configuration not stated) , field LC retention time: 9.73

Record CC(C)NCC(O)COc1cccc2[nH]ccc12 (configuration not stated) , field LC retention time: 5.55

Record `O=c1[nH]c2c(c(=O)n1C1CCCCC1)CCC2` , field LC retention time: 11.3

----------
Here, each record is paired with measured LC retention time data.
test: RP, Agilent ZORBAX Eclipse Plus C18, 50 × 4.6 mm, 1.8 µm, 0.5 mL/min, estimated dead time 1.1 min; A: water + 0.1% formic acid; B: acetonitrile + 0.1% formic acid; gradient (min/%B) 0/10 3/10 25/100 28/100; conditions: stereoisomer not certain
Expressed in min, but write only the number.

Record CNC(=O)ON=C(C)C(C)SC (stereo unspecified) , field LC retention time: 9.65

Record `CC1=C(C(=O)Nc2ccccc2)SCCO1` , field LC retention time: 13.1

Record `CNC(=O)Oc1ccccc1C(C)C` , field LC retention time: 13.6

Record CCN(CC)C(=O)C(C)Oc1cccc2ccccc12 (stereo unspecified) , field LC retention time: 16.3

Record `CCOC(=O)N(C)C(=O)CSP(=S)(OCC)OCC` , field LC retention time: 17.8

Record CCC1CCCC(OC2CCC(N(C)C)C(C)O2)C(C)C(=O)C2=CC3C(C=CC4CC(OC5OC(C)C(OC)C(OC)C5OC)CC43)C2CC(=O)O1 (stereo unspecified) , field LC retention time: 14.9

----------
assay: RP, Agilent ZORBAX Eclipse Plus C18, 50 × 4.6 mm, 1.8 µm, 0.5 mL/min, estimated dead time 1.1 min; A: water + 0.1% formic acid; B: acetonitrile + 0.1% formic acid; gradient (min/%B) 0/10 3/10 25/100 28/100; details: stereoisomer not certain
MEASUREMENT_LABEL: LC retention time (min)
Expressed in min, but write only the number.

COMPOUND	OBSERVED_RESULT
NC(N)=Nc1nc(CSCCC(N)=NS(N)(=O)=O)cs1	1.81
CCC1OC(=O)CC(O)C(C)C(OC2OC(C)C(OC3CC(C)(O)C(O)C(C)O3)C(N(C)C)C2O)C(CC=O)CC(C)C(=O)C=CC(C)=CC1COC1OC(C)C(O)C(OC)C1OC (centres undefined)	10.1
CC(COc1ccc(Oc2ccccc2)cc1)Oc1ccccn1 (centres undefined)	21.2
CNC(=O)Oc1cccc(C)c1	11
CNC(C)C(O)c1ccccc1 (centres undefined)	2.78
CC(Cc1ccc(C(C)(C)C)cc1)CN1CC(C)OC(C)C1 (centres undefined)	12.4

Record CCC1CCCC(OC2CCC(N(C)C)C(C)O2)C(C)C(=O)C2=CC3C(C=C(C)C4CC(OC5OC(C)C(OC)C(OC)C5OC)CC43)C2CC(=O)O1 (centres undefined) , field LC retention time: 14.2

Record `CC(C)(c1ccc(O)cc1)c1ccc(O)cc1` , field LC retention time: 13.1

Record CCC(C)C(=O)OC1CC(O)C=C2C=CC(C)C(CCC(O)CC(O)CC(=O)O)C21 (centres undefined) , field LC retention time: 10.7

----------
test: RP, Agilent ZORBAX Eclipse Plus C18, 50 × 4.6 mm, 1.8 µm, 0.5 mL/min, estimated dead time 1.1 min; A: water + 0.1% formic acid; B: acetonitrile + 0.1% formic acid; gradient (min/%B) 0/10 3/10 25/100 28/100; conditions: stereoisomer not certain
MEASUREMENT_LABEL: LC retention time (min)
Expressed in min, but write only the number.

> print(dat)
                        compound  observed.result
1  Nc1ccc(S(=O)(=O)Nc2ccccn2)cc1             5.27

Record CNC(=O)ON=CC(C)(C)S(C)=O (stereo unspecified) , field LC retention time: 2.7

Record `CNc1nc(NC(C)C)nc(SC)n1` , field LC retention time: 8.8

Record CC(C)C1(C)N=C(c2nc3ccccc3cc2C(=O)O)NC1=O (stereo unspecified) , field LC retention time: 11

----------
assay: RP, Agilent ZORBAX Eclipse Plus C18, 50 × 4.6 mm, 1.8 µm, 0.5 mL/min, estimated dead time 1.1 min; A: water + 0.1% formic acid; B: acetonitrile + 0.1% formic acid; gradient (min/%B) 0/10 3/10 25/100 28/100; settings: stereoisomer not certain
MEASUREMENT_LABEL: log10 of LC retention time (log10 of the value in min)
Quick note: numbers are log10 of LC retention time, with min as the unit.

Example entries begin here.
> print(dat)
                                   compound           measurement.label  observed.result
1                             Cc1cccc(C)c1N  log10 of LC retention time             0.77
2              Nc1ccc(S(=O)(=O)Nc2nccs2)cc1  log10 of LC retention time             0.72
3  COc1ccc2cc(C(C)C(=O)O)ccc2c1 (stereo not given)  log10 of LC retention time             1.14
4  CON=C(C(=O)NC1C(=O)N2C(C(=O)O)=C(COC(C)=O)CSC12)c1csc(N)n1 (stereo not given)  log10 of LC retention time             0.80
5                               O=NN1CCCCC1  log10 of LC retention time             0.82

Record `COCCOc1ccccc1S(=O)(=O)NC(=O)Nc1nc(OC)nc(OC)n1` , field log10 of LC retention time: 1.08

Record CC12CCC(O)CC1CCC1C2CC(O)C2(C)C(C3=CC(=O)OC3)CCC12O (stereo not given) , field log10 of LC retention time: 0.91

Record `CCSC(=O)N1CCCCCC1` , field log10 of LC retention time: 1.20

Record COC(=O)C(C)N(C(=O)Cc1ccccc1)c1c(C)cccc1C (stereo not given) , field log10 of LC retention time: 1.26

Record `CCN(CC)C(=O)c1cccc(C)c1` , field log10 of LC retention time: 1.11

Record COP(N)(=O)SC (stereo not given) , field log10 of LC retention time: 0.21

Record `CCOP(=S)(OCC)Oc1ccc([N+](=O)[O-])cc1` , field log10 of LC retention time: 1.27

Record `CN(C)C1CSSSC1` , field log10 of LC retention time: 0.31

Record `CCSC(=O)N(CC)C1CCCCC1` , field log10 of LC retention time: 1.30

Record `CCn1cc(C(=O)O)c(=O)c2cc3c(cc21)OCO3` , field log10 of LC retention time: 0.99
